For each entry below, report its pEC50 value.
# System: tankyrase 1/2
# Assay Notes: Cellular inhibition of Tankyrase: increase of Axin2 level in DLD1 cells (Luminex)
# Assay type: cell-based
# Protocol Conditions: 24 hours, read-out: EC50 tankyrase 1/2 (cell assay)
pEC50: −log10 of the molar value.

The reported value for `Cn1cc(-c2ccc(-c3cn4cc(F)cc4c(=O)[nH]3)cc2)cn1` in terms of pEC50 is 5.52 to 6.52

The reported value for `Cc1cc2c(=O)[nH]c(-c3ccc(N4CCCC4)cc3)cn2n1` in terms of pEC50 is 5.52 to 6.52

The reported value for `CC(C)(F)c1ccc(-c2cn3cc(F)cc3c(=O)[nH]2)cc1` in terms of pEC50 is > 6.52

The reported value for `CC(C)(O)c1ccc(-c2cn3cc(F)cc3c(=O)[nH]2)cc1` in terms of pEC50 is > 6.52

The reported value for `CN1CCC(c2ccc(-c3cn4cccc4c(=O)[nH]3)cc2)CC1` in terms of pEC50 is 4.30 to 5.52

The reported value for `O=c1[nH]c(-c2ccc(-c3cnn(CCO)c3)cc2)cn2cccc12` in terms of pEC50 is 5.52 to 6.52

The reported value for CC1(c2ccc(-c3cn4cc(F)cc4c(=O)[nH]3)cc2)CCCO1 (centres unmarked) in terms of pEC50 is > 6.52

The reported value for `Cn1cc(-c2ccc(-c3cn4cccc4c(=O)[nH]3)cc2)cn1` in terms of pEC50 is > 6.52

The reported value for `CC(C)(O)c1ccc(-c2cn3nc(C(F)(F)F)cc3c(=O)[nH]2)cc1` in terms of pEC50 is 4.30 to 5.52

The reported value for `CC(C)(C)c1ccc(-c2cn3nccc3c(=O)[nH]2)cc1` in terms of pEC50 is > 6.52

The reported value for CN1CCC(c2ccc(-c3cn4cccc4c(=O)[nH]3)cc2)C1 (centres unmarked) in terms of pEC50 is 4.30 to 5.52

meta.source: patent US9120805B2
